# assay_name: amyloid nucleation score (Sup35N fusion, yeast selection) (log enrichment); library NNK1; higher = more nucleation; inactive = no reads after selection;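 also: zero at mode of non-aggregating sequences after 7 days selection at 30°C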

- substance: "SMYVYDRGTGILLSCGVYFF"
  amyloid nucleation score: 1.82
- substance: "LFWNFRRTGAGLAAGLVVGL"
  amyloid nucleation score: -0.885
- substance: "LLMNQV"
  amyloid nucleation score: 0.715
- substance: "VSRNIWYRWGNLLAVVKM"
  amyloid nucleation score: -0.025
- substance: "NKIQQGYMSPYCNHSVFVSF"
  amyloid nucleation score: -0.296
- substance: "LKYANLSMRYPWVKKYCKEN"
  amyloid nucleation score: -0.301
- substance: "WFFVDSVYIRNKFSLEKGSA"
  amyloid nucleation score: 7.49
- substance: "AAVRALLYRCVVHVRFFFKE"
  amyloid nucleation score: 1.06
- substance: "HNQCHVKYDYHYL"
  amyloid nucleation score: -0.183
- substance: "SHGNLYGHHERLNSTRNPES"
  amyloid nucleation score: -1.14
- substance: "YLWILDMAREDELHATCSGE"
  amyloid nucleation score: -0.558
- substance: "HANISLRSWRFRYHCREFKG"
  amyloid nucleation score: 1.47
- substance: "GKERCDRMNKTLFLTFSYII"
  amyloid nucleation score: -0.281
- substance: "WQLLKKCP"
  amyloid nucleation score: -0.576
- substance: "VILRIIILYCLYHVWISGM"
  amyloid nucleation score: 0.177
- substance: "GFSMTKCAYTNTH"
  amyloid nucleation score: 1.68

====

# assay_name: amyloid nucleation score (Sup35N fusion, yeast selection) (log enrichment); library NNK3; higher = more nucleation; inactive = no reads after selection
test_readout: amyloid nucleation score

- substance: "INYYFWTSGK"
  test_readout: "amyloid nucleation score"
  recorded_value: 0.731
- substance: "VEIGCANSRWDLLGVVCCLG"
  test_readout: "amyloid nucleation score"
  recorded_value: 1.27
- substance: "HSSVDIQRFCIFYINQCVPK"
  test_readout: "amyloid nucleation score"
  recorded_value: 2.45
- substance: "VHGVRV"
  test_readout: "amyloid nucleation score"
  recorded_value: "inactive"
- substance: "FFLAFKEQPRAYLISISTH"
  test_readout: "amyloid nucleation score"
  recorded_value: "inactive"
- substance: "EFFSCYTEYPFRPAFLILTT"
  test_readout: "amyloid nucleation score"
  recorded_value: "inactive"
- substance: "LRQNTYMLLSGNIVCRIVSF"
  test_readout: "amyloid nucleation score"
  recorded_value: "inactive"
- substance: "LLWEWYFI"
  test_readout: "amyloid nucleation score"
  recorded_value: "inactive"
- substance: "DYITYVYYVSVRF"
  test_readout: "amyloid nucleation score"
  recorded_value: -0.124
- substance: "ILRPPKAA"
  test_readout: "amyloid nucleation score"
  recorded_value: "inactive"
- substance: "EKLIIELLCTT"
  test_readout: "amyloid nucleation score"
  recorded_value: "inactive"
- substance: "LNSGIS"
  test_readout: "amyloid nucleation score"
  recorded_value: 0.103
- substance: "CYYDSLYCVEFHFCNYIVVL"
  test_readout: "amyloid nucleation score"
  recorded_value: -0.127
- substance: "RLSEFGVNVAQMWATVVTSL"
  test_readout: "amyloid nucleation score"
  recorded_value: "inactive"
- substance: "NVANRGLLHMELSVNKDWAM"
  test_readout: "amyloid nucleation score"
  recorded_value: 0.699
- substance: "WYERGG"
  test_readout: "amyloid nucleation score"
  recorded_value: "inactive"
- substance: "GPSAGGFCQLRGVDVDV"
  test_readout: "amyloid nucleation score"
  recorded_value: "inactive"
- substance: "FFLNGVCDCLRIPCTNVYLY"
  test_readout: "amyloid nucleation score"
  recorded_value: "inactive"

====

# assay_name: amyloid nucleation score (Sup35N fusion, yeast selection) (log enrichment); library NNK2; higher = more nucleation; inactive = no reads after selection
test_readout: amyloid nucleation score

- substance: "NWWYSRSRPHMGSSISFSEV"
  test_readout: "amyloid nucleation score"
  recorded_value: -0.37
- substance: "NYLLMR"
  test_readout: "amyloid nucleation score"
  recorded_value: 0.414
- substance: "RSWIGERIIYSSMRYQCAYL"
  test_readout: "amyloid nucleation score"
  recorded_value: -1.42
- substance: "YYGSGNPSQGVVSEWLVRDA"
  test_readout: "amyloid nucleation score"
  recorded_value: 0.571
- substance: "YNTISDWTSLEPYTLVRVLL"
  test_readout: "amyloid nucleation score"
  recorded_value: 1.91
- substance: "CRIVKRVRAADRRMWIMCLG"
  test_readout: "amyloid nucleation score"
  recorded_value: -0.256
- substance: "LTAGVYSSSWSDVS"
  test_readout: "amyloid nucleation score"
  recorded_value: 1.4
- substance: "CSVRSSAIYIRSCHHGWFYC"
  test_readout: "amyloid nucleation score"
  recorded_value: -1.19
- substance: "GCMTMTWMTNYLSFHNDTFT"
  test_readout: "amyloid nucleation score"
  recorded_value: 4.26
- substance: "LVYVWKDLAYMVLLHFRLFL"
  test_readout: "amyloid nucleation score"
  recorded_value: -1.16
- substance: "SCRDNIRGQRLGHHAGLWSR"
  test_readout: "amyloid nucleation score"
  recorded_value: 0.479
- substance: "DYLRYRYSMFCTCPAVTQS"
  test_readout: "amyloid nucleation score"
  recorded_value: -0.567
- substance: "TWRHSPCLVRTEFERKLTRL"
  test_readout: "amyloid nucleation score"
  recorded_value: 0.039
- substance: "YASYICIQHYCFFLAYYNML"
  test_readout: "amyloid nucleation score"
  recorded_value: "inactive"
- substance: "VVDTMNFNYCVVCSLRSVWQ"
  test_readout: "amyloid nucleation score"
  recorded_value: 10.5
- substance: "VKINSTDMSMVQNCNYLIWV"
  test_readout: "amyloid nucleation score"
  recorded_value: -0.531
- substance: "LCIDHYVDEMPSIRVVDFYF"
  test_readout: "amyloid nucleation score"
  recorded_value: 0.741
- substance: "CVMMSQAFF"
  test_readout: "amyloid nucleation score"
  recorded_value: 5.22
- substance: "GVISYMTSRGRGLSNNMSNW"
  test_readout: "amyloid nucleation score"
  recorded_value: -0.15
- substance: "FRIIYKWCLMPLMPGCGGM"
  test_readout: "amyloid nucleation score"
  recorded_value: "inactive"
- substance: "QIYCVSPLSRHWYFARYGVT"
  test_readout: "amyloid nucleation score"
  recorded_value: 0.78
- substance: "LHMECLKDKSCNNSSADVRG"
  test_readout: "amyloid nucleation score"
  recorded_value: 0.374
- substance: "FHRNMMVLQCIRRVL"
  test_readout: "amyloid nucleation score"
  recorded_value: 0.016
- substance: "LPFMECC"
  test_readout: "amyloid nucleation score"
  recorded_value: -0.696
- substance: "RFYIPLSYFMSEGDRSCKFI"
  test_readout: "amyloid nucleation score"
  recorded_value: -0.642
- substance: "IQKVVIVYSHDVYSDQ"
  test_readout: "amyloid nucleation score"
  recorded_value: 6.74
- substance: "PSVCKWCYMKCRRRTCFSQL"
  test_readout: "amyloid nucleation score"
  recorded_value: "inactive"
- substance: "RVSQHGEVPSTCFSK"
  test_readout: "amyloid nucleation score"
  recorded_value: 1.39
- substance: "IYLCTDSLSYRSFVRGN"
  test_readout: "amyloid nucleation score"
  recorded_value: 1.18
- substance: "GMSQAIVGVICSGIYLPEVR"
  test_readout: "amyloid nucleation score"
  recorded_value: 0.44
- substance: "CMKKWFS"
  test_readout: "amyloid nucleation score"
  recorded_value: 3.85
- substance: "CRRSNFNYQGVLGYWHRFAG"
  test_readout: "amyloid nucleation score"
  recorded_value: -0.755
- substance: "NGCSFRGNCCDSGERNVVEV"
  test_readout: "amyloid nucleation score"
  recorded_value: 0.071
- substance: "SKGRHVMGLGCEGNIWLKEL"
  test_readout: "amyloid nucleation score"
  recorded_value: -0.377
- substance: "HVVVDSSVVAGCFTVFCRGI"
  test_readout: "amyloid nucleation score"
  recorded_value: 8.27
- substance: "TRYHLHSALT"
  test_readout: "amyloid nucleation score"
  recorded_value: -0.12

====

# assay_name: amyloid nucleation score (Sup35N fusion, yeast selection) (log enrichment); library NNK2; higher = more nucleation; inactive = no reads after selection

- substance: "FMSRTWLAYFTCKMLHGLLR"
  amyloid nucleation score: 0.863
- substance: "CTTLLALHMWISCVIGWSR"
  amyloid nucleation score: 0.172
- substance: "IYNMRHSMTMFHCYGFLRRV"
  amyloid nucleation score: -0.976
- substance: "RWRIARMITPNLPELLSLYR"
  amyloid nucleation score: 2.93
- substance: "HWVCKIILRGHSSMYCSDGC"
  amyloid nucleation score: 3.35
- substance: "ISFYQWRPWNFLRYRRGNAH"
  amyloid nucleation score: 0.237
- substance: "HNSNYHIYGWVMVRRRIGYI"
  amyloid nucleation score: "inactive"
- substance: "FAKCHFSQSARYIY"
  amyloid nucleation score: "inactive"
- substance: "ANNRGVSLDPGVHCVGVLLK"
  amyloid nucleation score: 0.551
- substance: "QVYCQAVNYKENRVYFMGVP"
  amyloid nucleation score: 5.2
- substance: "IGQRLCYCVCWRSSCGVVWQ"
  amyloid nucleation score: 1.46
- substance: "AFTSLPLCYSVYGKIKFCPC"
  amyloid nucleation score: 0.433
- substance: "FFMYHAVL"
  amyloid nucleation score: 1.02
- substance: "SIYSSGNALTYQRIHNWVGI"
  amyloid nucleation score: -0.953
- substance: "GFGCPA"
  amyloid nucleation score: -0.165
- substance: "PSVDCSEIKPIWNLVKYFLI"
  amyloid nucleation score: -0.571
- substance: "ALNDAGYT"
  amyloid nucleation score: -0.656
- substance: "SRTDVPSTMLLSESRAVNYY"
  amyloid nucleation score: -0.569
- substance: "SACIILI"
  amyloid nucleation score: 1.65
- substance: "VHLGRV"
  amyloid nucleation score: -0.678
- substance: "YRTCNIDGL"
  amyloid nucleation score: "inactive"
- substance: "RNSCFVLSFMGWFVHYHFRF"
  amyloid nucleation score: -0.317
- substance: "CQIVGRHIGVRMCDDRVYRA"
  amyloid nucleation score: 0.762
- substance: "SYHGVRLFDIHIGSLKFQQ"
  amyloid nucleation score: 7.55
- substance: "FSIDVSSYRMWLPVSDLYFI"
  amyloid nucleation score: -0.545
- substance: "FPWQSSDYFWNHARRS"
  amyloid nucleation score: -0.043
- substance: "FLFQWLLEKPYFYPAFCKCK"
  amyloid nucleation score: 4.49
- substance: "DYTSVSMVIHVCKRL"
  amyloid nucleation score: 5.59
- substance: "CDSDSLGVTYVDDDCGYNYC"
  amyloid nucleation score: -1.03
- substance: "SFLVSFHPMS"
  amyloid nucleation score: -1.33
- substance: "VGDSMMWVTDRAKGVPYGGD"
  amyloid nucleation score: 0.285
- substance: "LTGCAKLGSLKLSLAPVYVD"
  amyloid nucleation score: 0.811
- substance: "CRGDRFSRSST"
  amyloid nucleation score: -0.217
- substance: "KFIPLINIRTQL"
  amyloid nucleation score: "inactive"
- substance: "TDKIWSCHLGQTAWLSKSSG"
  amyloid nucleation score: 0.385
- substance: "ELYWGS"
  amyloid nucleation score: 0.509
- substance: "IANKCVS"
  amyloid nucleation score: -1.12
- substance: "VFVIWCFVIICVSLLSVVDR"
  amyloid nucleation score: -0.795
- substance: "DSWSIMWSLC"
  amyloid nucleation score: -0.272
- substance: "LKNNNQETGIEFYIFREHRD"
  amyloid nucleation score: 4.22
- substance: "DYSSVVYNDGIWKGAPNFK"
  amyloid nucleation score: -2.05
- substance: "YVLGEHRIRCGEDYV"
  amyloid nucleation score: 1.77
- substance: "NTLLILHIDICYVYSVILTF"
  amyloid nucleation score: -0.942
- substance: "RLNAMEESIKSNIYSFWSFY"
  amyloid nucleation score: "inactive"
- substance: "FMLRTAQSHISSTVTSVKQA"
  amyloid nucleation score: 0.064
- substance: "FYSSPILM"
  amyloid nucleation score: -0.927
- substance: "RIMPTLLKIPYLWYQSLSCD"
  amyloid nucleation score: -0.081
- substance: "DLIGPYRVLRFCRWV"
  amyloid nucleation score: 2.8
- substance: "FINNNNGAPSRVHPTGALTR"
  amyloid nucleation score: -0.357
- substance: "KQLMRGIWDRG"
  amyloid nucleation score: -0.217
- substance: "VKRYGINGGFNYSSYCTAGI"
  amyloid nucleation score: "inactive"
- substance: "SFCVALFSWSVYVTIRVHYR"
  amyloid nucleation score: -0.545
- substance: "LYGGCRKWFTRTCFSFHMYR"
  amyloid nucleation score: 0.562
- substance: "SHMHEEHIVEECTCSTPRRK"
  amyloid nucleation score: 1.32
- substance: "NACYIDFGRTAVSTVLAILY"
  amyloid nucleation score: 3.41
- substance: "CSESFGCRTPPSLNMLVCN"
  amyloid nucleation score: -0.729
- substance: "FWYCTHTTSYDGTLNSEWVT"
  amyloid nucleation score: 0.307
- substance: "SWCLKRRTPHFVQVYHRNND"
  amyloid nucleation score: -0.095
- substance: "LKSKVTLSYYSIVPAISVYE"
  amyloid nucleation score: "inactive"
- substance: "YGSSGK"
  amyloid nucleation score: -0.362
- substance: "QCGMIMRSSLKSGATCFLDS"
  amyloid nucleation score: 0.124
- substance: "IPYGMSWTWSH"
  amyloid nucleation score: -0.565
- substance: "TSNNVCCARHPI"
  amyloid nucleation score: 1.37
- substance: "NVDWCCQICSCFTRIFELLM"
  amyloid nucleation score: 2.21
- substance: "MPQWKL"
  amyloid nucleation score: -0.205
- substance: "LAVIGVSRGMGL"
  amyloid nucleation score: 0.716
- substance: "HTSVLNMTGSGLIPN"
  amyloid nucleation score: -1.82
- substance: "CWNKEGRFTRVTMEHASRRA"
  amyloid nucleation score: 0.973
- substance: "MMVYKGMPVLPCEYRVLY"
  amyloid nucleation score: -0.199
- substance: "SFCYLLSTISVTIALVKTRG"
  amyloid nucleation score: -0.271
- substance: "DNYLYYYFYSFRLTEALFIC"
  amyloid nucleation score: -0.297
- substance: "RHDSCMCFMTDQL"
  amyloid nucleation score: -0.864
- substance: "MAAVSETHPGAEGSNRVVSE"
  amyloid nucleation score: 3.06
